subject-of-test: monkey GPC3-His protein (monkey)
protocol-text: ELISA, monkey GPC3-His coated; antibody 2.67 nM
Give measured OD450 nm for each item. Keep answers brief.
Would you mind answering with just the numeric figure?

# lookup: OD450 nm of hAb006LH2L1a (antibody, human IgG1, V domains shown) VH: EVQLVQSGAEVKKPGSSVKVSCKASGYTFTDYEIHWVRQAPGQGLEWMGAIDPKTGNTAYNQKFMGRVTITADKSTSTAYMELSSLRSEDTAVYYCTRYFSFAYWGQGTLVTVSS VL: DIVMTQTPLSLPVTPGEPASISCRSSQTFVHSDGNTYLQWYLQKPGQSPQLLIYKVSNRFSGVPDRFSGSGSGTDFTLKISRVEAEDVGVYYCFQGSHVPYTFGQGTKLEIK 1.39

Repeat for the following binder: hAb003LH1L1a (antibody, human IgG1, V domains shown) VH: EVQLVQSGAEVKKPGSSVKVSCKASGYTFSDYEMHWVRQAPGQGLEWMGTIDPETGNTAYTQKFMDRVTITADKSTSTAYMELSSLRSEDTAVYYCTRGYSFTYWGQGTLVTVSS VL: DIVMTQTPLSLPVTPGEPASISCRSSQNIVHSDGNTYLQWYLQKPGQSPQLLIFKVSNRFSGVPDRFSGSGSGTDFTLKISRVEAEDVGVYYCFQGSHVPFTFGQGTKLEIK 2.29

Repeat for the following binder: hAb005LH2L1b (antibody, human IgG1, V domains shown) VH: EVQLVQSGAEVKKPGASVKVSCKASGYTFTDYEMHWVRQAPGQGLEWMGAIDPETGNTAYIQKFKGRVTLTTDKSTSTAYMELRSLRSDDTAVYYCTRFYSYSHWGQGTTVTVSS VL: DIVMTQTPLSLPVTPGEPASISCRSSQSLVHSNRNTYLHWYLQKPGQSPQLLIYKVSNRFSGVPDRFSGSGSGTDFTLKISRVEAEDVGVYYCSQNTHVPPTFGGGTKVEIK 1.32
